Experiment: gradient 5% acetonitrile 3 min, to 50% in 2 min, to 85% in 15 min, held 3 min, 100 µL/min
Details: column: Zorbax Extend-C18 2.1 x 50 mm; eluents: water / acetonitrile, 0.1% formic acid
Could you please report measured RP-LC retention time for the items listed next?
Note: unit s is implicit; provide only the numeric part.

Query block: Answer with the recorded RP-LC retention time for the molecule listed here: Cc1occc1-c1nnc2sc(COc3ccc(Cl)cc3)nn12
Result block: 1000

Query block: Determine from records and report RP-LC retention time for COc1ccc(NC(=O)c2cc(NC(=O)C3CCC3)cc3nc(C)ccc23)cc1OC
Result block: 640

Query block: For the molecule COc1ccc(OC)c(S(=O)(=O)N2CCC(Cc3nncn3C)C2)c1 (stereo unspecified) , give its reported RP-LC retention time.
Result block: 619

Query block: Tell me measured RP-LC retention time for CCCC(=O)N1CCc2c([nH]c3ccccc23)C12C(=O)Nc1ccccc12 (stereo unspecified) please.
Result block: 830

Query block: Please give measured RP-LC retention time of the following entry: O=C(COc1ccccc1)NCCSc1c[nH]c2ccccc12
Result block: 831

Query block: Give reported RP-LC retention time value for COc1ccc(NC(=O)c2cc3c(=O)n(CC(C)C)c4ccccc4n3n2)c(OC)c1
Result block: 1180

Query block: Name the recorded RP-LC retention time of the item COCCN1CCn2cc(S(=O)(=O)Nc3cc(C)cc(C)c3)cc2C1=O in your answer.
Result block: 745

Query block: Let me know recorded RP-LC retention time for C=CCN(CC=C)S(=O)(=O)c1ccc(C(=O)N2CCc3ccccc3C2)cc1 , thanks.
Result block: 940

Query block: For the molecule CSc1ccc(Cl)c(-c2nc(-c3ccc4oc(C)nc4c3)no2)c1 , report RP-LC retention time.
Result block: 1260

Query block: Fill in RP-LC retention time for record CCCN(CC1CCOC1)S(=O)(=O)c1cc(F)ccc1OC (stereo unspecified)
Result block: 868

Query block: Quickly give me recorded RP-LC retention time for Cn1cc(C(=O)NCc2cccc(Cl)c2)c(S(=O)(=O)N2CCSCC2)n1
Result block: 892
